- assay text: Partition coefficient (logD)
- Assay type: physicochemical
- setup conditions: octanol/water
quantity name: logD

Take a look at these entries with their results.
NCc1ccc(F)c(O)c1F : -1.7
CP(=O)(O)C1=CCNCC1 : -3.7

[I] NCc1cc(F)c(O)c(F)c1
[II] NCCCC(=O)O
Between the two listed entries I and II , which has its logD at the higher number? Let me know the label of the one you choose. I
(I: -1.7, II: -3.1)

###

- assay system: GABA B receptor (Rattus norvegicus, UniProt O88871+Q9Z0U4)
- Sequence (Q9Z0U4 whole entry): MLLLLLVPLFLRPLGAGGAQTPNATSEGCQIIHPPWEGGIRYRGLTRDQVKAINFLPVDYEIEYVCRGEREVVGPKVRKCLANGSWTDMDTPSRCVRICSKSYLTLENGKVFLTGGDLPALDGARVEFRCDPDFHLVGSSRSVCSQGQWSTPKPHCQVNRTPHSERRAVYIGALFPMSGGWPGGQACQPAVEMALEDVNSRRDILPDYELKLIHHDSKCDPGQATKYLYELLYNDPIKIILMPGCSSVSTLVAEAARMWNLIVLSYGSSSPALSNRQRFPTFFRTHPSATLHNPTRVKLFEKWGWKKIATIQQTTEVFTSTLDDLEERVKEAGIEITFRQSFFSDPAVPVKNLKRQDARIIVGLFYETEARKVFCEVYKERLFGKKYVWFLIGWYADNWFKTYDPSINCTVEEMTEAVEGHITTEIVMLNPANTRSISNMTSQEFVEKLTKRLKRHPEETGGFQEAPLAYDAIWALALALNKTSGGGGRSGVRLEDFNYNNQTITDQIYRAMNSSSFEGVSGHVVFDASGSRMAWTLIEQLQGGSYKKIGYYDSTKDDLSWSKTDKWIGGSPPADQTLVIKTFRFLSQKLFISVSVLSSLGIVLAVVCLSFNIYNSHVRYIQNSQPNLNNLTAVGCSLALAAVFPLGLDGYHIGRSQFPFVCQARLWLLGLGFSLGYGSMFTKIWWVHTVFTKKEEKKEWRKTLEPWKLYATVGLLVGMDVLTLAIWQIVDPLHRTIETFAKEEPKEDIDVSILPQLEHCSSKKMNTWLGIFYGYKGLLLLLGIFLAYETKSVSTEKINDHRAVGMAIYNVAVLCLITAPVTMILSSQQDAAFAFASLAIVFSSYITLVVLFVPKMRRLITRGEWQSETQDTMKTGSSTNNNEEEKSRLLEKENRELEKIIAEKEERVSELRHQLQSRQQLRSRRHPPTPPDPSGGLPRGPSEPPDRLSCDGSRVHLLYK
- Sequence (O88871 whole entry): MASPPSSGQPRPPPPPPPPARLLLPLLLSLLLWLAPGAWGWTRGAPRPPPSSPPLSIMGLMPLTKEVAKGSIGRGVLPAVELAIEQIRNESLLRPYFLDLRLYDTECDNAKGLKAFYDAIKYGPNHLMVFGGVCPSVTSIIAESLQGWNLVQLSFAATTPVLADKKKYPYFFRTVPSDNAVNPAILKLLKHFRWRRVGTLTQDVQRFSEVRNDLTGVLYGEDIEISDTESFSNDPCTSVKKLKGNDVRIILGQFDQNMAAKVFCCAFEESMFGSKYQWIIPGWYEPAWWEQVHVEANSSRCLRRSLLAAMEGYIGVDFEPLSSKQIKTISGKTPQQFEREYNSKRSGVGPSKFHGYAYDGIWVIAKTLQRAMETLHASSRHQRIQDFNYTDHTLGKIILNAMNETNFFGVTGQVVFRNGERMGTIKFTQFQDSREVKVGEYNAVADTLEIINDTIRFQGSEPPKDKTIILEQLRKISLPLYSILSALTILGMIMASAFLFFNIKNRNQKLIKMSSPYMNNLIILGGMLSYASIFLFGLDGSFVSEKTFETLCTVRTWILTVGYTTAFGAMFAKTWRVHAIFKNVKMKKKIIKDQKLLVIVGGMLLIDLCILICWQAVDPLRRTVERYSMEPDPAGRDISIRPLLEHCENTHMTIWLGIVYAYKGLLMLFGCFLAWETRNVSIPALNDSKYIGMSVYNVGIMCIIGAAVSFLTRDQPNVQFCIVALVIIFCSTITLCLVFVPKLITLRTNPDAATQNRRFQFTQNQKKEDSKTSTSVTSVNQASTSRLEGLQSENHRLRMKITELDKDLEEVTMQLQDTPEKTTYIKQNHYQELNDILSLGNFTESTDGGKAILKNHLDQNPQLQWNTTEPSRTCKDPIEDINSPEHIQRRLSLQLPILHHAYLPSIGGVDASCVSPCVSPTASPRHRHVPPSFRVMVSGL
- assay text: Displacement of [3H]GABA from Gamma-aminobutyric acid type B receptor in rat brain membranes
pIC50: −log10 of the molar value.
// reported pIC50 for each item listed

NCc1cc(F)c(O)c(F)c1 : < 3.00

--- query ---
Summary for this molecule, NCc1ccc(F)c(O)c1F : pIC50 is < 3.00
